method.description: Bridging study of monophosphate salt and free base in dog (plasma pharmacokinetics)
Format: in vivo
settings: male, po, 40 mg/kg, dog M-1001, oral gavage
Counter-ions that a name gives are not always drawn.

molecule | AUC, ng·h/mL
CN1C(=O)c2c(nn(Cc3ccc(-c4cccc(F)n4)cc3)c2Nc2ccccc2)N2C1=N[C@@H]1CCC[C@@H]12 [Phosphate salt] | 16900

----------
method.description: Bridging study of monophosphate salt and free base in dog (plasma pharmacokinetics)
Assay type: in vivo
settings: male, po, 40 mg/kg, dog M-1002, oral gavage
Counter-ions that a name gives are not always drawn.
experimental.endpoint: Cmax (ng/mL)

compound | experimental.endpoint | measured.result
CN1C(=O)c2c(nn(Cc3ccc(-c4cccc(F)n4)cc3)c2Nc2ccccc2)N2C1=N[C@@H]1CCC[C@@H]12 [Phosphate salt] | Cmax | 1520
